All figures here come from the supplement of paper PMC8617591.

- System: Mycobacterium tuberculosis Erdman (autoluminescent)
- experiment-summary: AUC25, normalised area under dose response up to IC25 (fraction (0-1)); higher = more potent at low dose
- test-context: in vitro model: dormancy (butyrate + nitrate, low O2); time point: constant (~7 days, model-specific)
Measured AUC25 accompanies every entry in the list below.
endpoint-name: AUC25

>>> test_result("O=[N+]([O-])c1cn2c(n1)OC[C@@H](OCc1ccc(OC(F)(F)F)cc1)C2")
0.0707
>>> test_result("NNC(=O)c1ccncc1")
0.0691
>>> test_result("NC(=O)c1cnccn1 [pyrazinamide]")
0.0813
>>> test_result("CO[C@H]1/C=C/O[C@@]2(C)Oc3c(C)c(O)c4c(O)c(c(/C=N/N5CCN(C)CC5)c(O)c4c3C2=O)NC(=O)/C(C)=C\\C=C\\[C@H](C)[C@H](O)[C@@H](C)[C@@H](O)[C@@H](C)[C@H](OC(C)=O)[C@@H]1C")
0.0684
>>> test_result("COc1nc2ccc(Br)cc2cc1[C@@H](c1ccccc1)[C@@](O)(CCN(C)C)c1cccc2ccccc12")
0.0618

----------
- Tested on: Mycobacterium tuberculosis Erdman (autoluminescent)
- experiment-summary: total FIC90 (Loewe) at 90% inhibition, three-drug combination (log2); higher = more antagonistic
- test-context: in vitro model: dormancy (butyrate + nitrate, low O2); time point: terminal (~4-5 doublings, model-specific)
endpoint-name: total FIC90

>>> test_result("CC(C)/N=c1\\cc2n(-c3ccc(Cl)cc3)c3ccccc3nc-2cc1Nc1ccc(Cl)cc1 [clofazimine] + NNC(=O)c1ccncc1 [isoniazid] + CO[C@H]1/C=C/O[C@@]2(C)Oc3c(C)c(O)c4c(O)c(c(/C=N/N5CCN(C6CCCC6)CC5)c(O)c4c3C2=O)NC(=O)/C(C)=C\\C=C\\[C@H](C)[C@H](O)[C@@H](C)[C@@H](O)[C@@H](C)[C@H](OC(C)=O)[C@@H]1C [rifapentine]")
0.32
>>> test_result("COc1nc2ccc(Br)cc2cc1[C@@H](c1ccccc1)[C@@](O)(CCN(C)C)c1cccc2ccccc12 [bedaquiline] + O=[N+]([O-])c1cn2c(n1)OC[C@@H](OCc1ccc(OC(F)(F)F)cc1)C2 [pretomanid] + CO[C@H]1/C=C/O[C@@]2(C)Oc3c(C)c(O)c4c(O)c(c(/C=N/N5CCN(C6CCCC6)CC5)c(O)c4c3C2=O)NC(=O)/C(C)=C\\C=C\\[C@H](C)[C@H](O)[C@@H](C)[C@@H](O)[C@@H](C)[C@H](OC(C)=O)[C@@H]1C [rifapentine]")
-0.459
>>> test_result("COc1nc2ccc(Br)cc2cc1[C@@H](c1ccccc1)[C@@](O)(CCN(C)C)c1cccc2ccccc12 [bedaquiline] + CC(C)/N=c1\\cc2n(-c3ccc(Cl)cc3)c3ccccc3nc-2cc1Nc1ccc(Cl)cc1 [clofazimine] + CC(=O)NC[C@H]1CN(c2ccc(N3CCOCC3)c(F)c2)C(=O)O1 [linezolid]")
-0.848
>>> test_result("CC(C)/N=c1\\cc2n(-c3ccc(Cl)cc3)c3ccccc3nc-2cc1Nc1ccc(Cl)cc1 [clofazimine] + COc1c(N2C[C@@H]3CCCN[C@@H]3C2)c(F)cc2c(=O)c(C(=O)O)cn(C3CC3)c12 [moxifloxacin] + O=[N+]([O-])c1cn2c(n1)OC[C@@H](OCc1ccc(OC(F)(F)F)cc1)C2 [pretomanid]")
0.601
>>> test_result("CC(C)/N=c1\\cc2n(-c3ccc(Cl)cc3)c3ccccc3nc-2cc1Nc1ccc(Cl)cc1 [clofazimine] + CC[C@@H](CO)NCCN[C@@H](CC)CO [ethambutol] + O=[N+]([O-])c1cn2c(n1)OC[C@@H](OCc1ccc(OC(F)(F)F)cc1)C2 [pretomanid]")
0.801
>>> test_result("COc1nc2ccc(Br)cc2cc1[C@@H](c1ccccc1)[C@@](O)(CCN(C)C)c1cccc2ccccc12 [bedaquiline] + CC(C)/N=c1\\cc2n(-c3ccc(Cl)cc3)c3ccccc3nc-2cc1Nc1ccc(Cl)cc1 [clofazimine] + COc1c(N2C[C@@H]3CCCN[C@@H]3C2)c(F)cc2c(=O)c(C(=O)O)cn(C3CC3)c12 [moxifloxacin]")
0.176
